# System: MS2 coat protein
# EXPERIMENTAL PROTOCOL: apparent KD of MS2 coat protein; designed switch direction (-1 OFF switch, 1 ON switch): -1; higher = weaker reporter binding
# CONDITIONS USED: Eterna round: R95; input ligand: FMN 200 uM
# label = bin(measured apparent KD of MS2 coat protein), where bins are LOW = under 50 nM, MID = from 50 nM up to 80 nM, HIGH = 80 nM and over

>  <SEQUENCE CODE>
UGUACUAACACGAAAGUGUUAGUACAAUAAGCUUGUGUUACAUGAGGAUCACCCAUGUCCUCAUAAGCUCGUCUUAU [Mat - Sensor v3 - Turn-off var 2 - D51] (puzzle: Sensor v3, turn-off variant 2)

>  <GROUP>
HIGH

$$$$
>  <SEQUENCE CODE>
UGGUAACAUGAGGAUCACCCAUGUCAGGAUAUCAGUAAGAAGAGAUUAGAUUAGAAUAUGAGAAGGGACUAUAG [Excluse me! 2 - Jieux - Exclusion 1] (puzzle: Exclusion 1)

>  <GROUP>
LOW

$$$$
>  <SEQUENCE CODE>
AAGAAACAUGAGGAUCACCCAUGUGAGGAUAUGAGCAAGAAAAGAAAAGAAAGAAGAUUCAGAAGGCACAAAGG [salish99-ex1_r3_059] (puzzle: Exclusion 1)

>  <GROUP>
MID

$$$$
>  <SEQUENCE CODE>
AGUACGAUGCGUGCUGACAUGCGUCGUGCAGCAGGUGAUACAUGAGGAUCACCCAUGUCCUCAUUUGCUCGUCUUGA [Mat - Sensor v3 - Turn-off var 2 - D19] (puzzle: Sensor v3, turn-off variant 2)

>  <GROUP>
LOW

$$$$
>  <SEQUENCE CODE>
AGUUGCGCAGGAUAUACAUGAGGAUCACCCAUGUGAGAGAAAUAAGUGAGGAAGAAAAGUAGAAGGGCGUGACG [Mat - Exclusion 3 - Mod of Salish D73] (puzzle: Exclusion 3)

>  <GROUP>
HIGH

$$$$
>  <SEQUENCE CODE>
AAAUAAUAGAUAAAAUAAAACAUGAGGAUCACCCAUGUGGGAAGAUGAGGGUGAAACAAGCUUUUUGCUCGUCUUAU (puzzle: Sensor v3, turn-off variant 1)

>  <GROUP>
LOW

$$$$
>  <SEQUENCE CODE>
UUUAAUUUUUUUUUUUUACAAGCUUUUUGCUCGUCUUAUACAUGAGGAUCACCCAUGUGGGUGGAGGAUAAAUUAUC [JMF 35] (puzzle: Sensor v3, turn-off variant 2)

>  <GROUP>
MID

$$$$
>  <SEQUENCE CODE>
CGUGUCUUUUACGUGAGUGGUGGGUGCAACAGGUGGGUUACAUGAGGAUCACCCAUGUCCUCACUUGCUCGUCUUUU [Grok-var2-08] (puzzle: Sensor v3, turn-off variant 2)

>  <GROUP>
MID

$$$$

---

sequences and their reported apparent KD of MS2 coat protein
# Tested on: MS2 coat protein
# EXPERIMENTAL PROTOCOL: apparent KD of MS2 coat protein; higher = weaker reporter binding
# CONDITIONS USED: Eterna round: R107; input ligand: theophylline 2 mM
READOUT LABEL: apparent KD of MS2 coat protein (nM)

>  <SEQUENCE CODE>
GUGGACAUGAGGAUCACCCAUGUAAGUCGGCGAGGACCGGUACGGCCGCCACUCGUGUUCUGUCUCAGCUCAAACGUAGCCGGAA [theeternabot_sameState_MS2_Trp_A_13]

>  <READOUT LABEL>
apparent KD of MS2 coat protein

>  <NUMERIC RESULT>
39.2

$$$$
>  <SEQUENCE CODE>
UGUAUGUGAUCUGAUACCAGAGUGACGCGAAAGCGAUAACCUGAGGAUCACCCUGGUAAACUCCCUUGGCAGCAGAUCGCAUACU

>  <READOUT LABEL>
apparent KD of MS2 coat protein

>  <NUMERIC RESULT>
24

$$$$
>  <SEQUENCE CODE>
UGCUAGUGAUCGGCCGCCACUGGCACCUUGAGGAUCCUGCUAAAGUACAUGAGGAUCACCCAUGUCAGGACCGGGAUCAUCAGUG [Onveusonri]

>  <READOUT LABEL>
apparent KD of MS2 coat protein

>  <NUMERIC RESULT>
10.8

$$$$
>  <SEQUENCE CODE>
CAUAUAUAUAGAAGGAGCGUCGAAAAUGGGUAAACAUGAGGAUCACCCAUGUAAAGGGAACGACAGGUAGGUCGCUAUAUAUAUG [AstromonsSSArgB#3]

>  <READOUT LABEL>
apparent KD of MS2 coat protein

>  <NUMERIC RESULT>
208

$$$$
